- measured_on: T1, recombinant human IP-10 (human, UniProt P02778 22-98)
- T1 construct: Bought from R&D Systems; also called CXCL10; rhIP-10
- T1 sequence: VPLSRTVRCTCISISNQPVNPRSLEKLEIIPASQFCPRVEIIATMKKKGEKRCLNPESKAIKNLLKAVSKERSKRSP
- test_description: competition ELISA on human IP-10, competitor: AIP13
measured_quantity: IC50 (µg/mL)

1) humanized monoclonal antibody HuAIP13 (antibody, human IgG1, V domains shown, Human IgG1/kappa) VH: EVQLVQSGAEVKKPGATVKISCKVSGYTFTDYSMHWVRQAPGKGLKWMGWINTEIGEPTYADDFKGRFTFTLDTSTSTAYMELSSLRSEDTAVYYCARNYDYDAYFDVWGQGTTVTVSS VL: DIQMTQSPSSLSASVGDRVTITCKADQDINKYIAWYQQKPGKAPKLLLHHTSTLQPGIPSRFSGSGSGRDYTFTISSLQPEDIATYYCLQYDSLLFTFGQGTKLEIK : 9.2
2) HuAIP12 T55I variant antibody (antibody, V domains shown) VH: EVQLVQSGAEVKKPGATVKISCKVSGYTFTDYSMHWVRQAPGKGLKWMGWINTEIGEPTYADDFKGRFTFTLDTSTSTAYMELSSLRSEDTAVYYCARNYDYDGYFDVWGQGTTVTVSS VL: DIQMTQSPSSLSASVGDRVTITCKASQDINKYIAWYQQKPGKAPKLLIHYTSTLQPGIPSRFSGSGSGRDYTFTISSLQPEDIATYYCLQYDNLLFTFGQGTKLEIK : 1.6
3) HuAIP12 G104A variant antibody (antibody, human IgG1, V domains shown, Human IgG1/kappa (gamma-1 and kappa expression vectors), transiently expressed in 293-H cells) VH: EVQLVQSGAEVKKPGATVKISCKVSGYTFTDYSMHWVRQAPGKGLKWMGWINTETGEPTYADDFKGRFTFTLDTSTSTAYMELSSLRSEDTAVYYCARNYDYDAYFDVWGQGTTVTVSS VL: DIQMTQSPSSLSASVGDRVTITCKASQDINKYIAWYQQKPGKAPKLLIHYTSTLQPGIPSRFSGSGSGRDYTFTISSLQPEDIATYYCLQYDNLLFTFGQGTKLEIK : 59.5
